- System: RXF 393 renal
- protocol-notes: NCI tumour cell line growth inhibition, 48 h
Assignment: determine reported TGI for the given compounds.

Query string: Using the record for Cc1ccc(S(=O)(=O)NC(CN)C(=O)O)cc1 (stereo not drawn) , report its TGI.
Result string: > 100 µM

Query string: What value of TGI has been reported for the following compound? O=C(OCC(Cl)(Cl)Cl)O[C@@H]1CCCC1(c1ccccc1)c1ccccc1
Result string: > 100 µM

Query string: Find the recorded TGI belonging to COc1ccc2oc(=O)c(-c3csc(C)n3)cc2c1 and report it.
Result string: > 100 µM

Query string: What measured TGI goes with COc1cc2nc(-c3cccs3)[nH]c(=O)c2cc1OC ?
Result string: > 100 µM

Query string: Requested read-out: TGI. Entry: Cc1ccc(S(=O)(=O)N/N=C(/c2nc3ccc([N+](=O)[O-])cc3[nH]c2=O)C(O)c2ccc(C(O)/C(=N\NS(=O)(=O)c3ccc(C)cc3)c3nc4ccc([N+](=O)[O-])cc4[nH]c3=O)cc2)cc1 (stereo not drawn)
Result string: > 100 µM

Query string: Which TGI is listed for C[Si](C)(c1ccccc1)[C@H]1CCCC=C1CCNC1c2ccccc2CCc2ccccc21 ?
Result string: > 100 µM

Query string: Fill in: TGI of O=C(Nc1nc2c(ncn2C2OC(CO)C(O)C2O)c(=O)[nH]1)c1ccccc1 (stereo not drawn) is ___
Result string: > 100 µM

Query string: Find the recorded TGI belonging to COc1cc(N(Cc2ccc3oc(=O)c(-c4ccccc4)nc3c2)Cc2ccc3oc(=O)c(-c4ccccc4)nc3c2)cc(OC)c1OC and report it.
Result string: > 10 µM
